All values here come from patent US20220031901A1.

Target: olfactory receptor OR2L3 (Homo sapiens)
Construct: N-terminal 20 amino acid residues of bovine rhodopsin (Rho tag); expressed in transfected cells; host or cells: HEK293T
Sequence (Q8NG85 1-312): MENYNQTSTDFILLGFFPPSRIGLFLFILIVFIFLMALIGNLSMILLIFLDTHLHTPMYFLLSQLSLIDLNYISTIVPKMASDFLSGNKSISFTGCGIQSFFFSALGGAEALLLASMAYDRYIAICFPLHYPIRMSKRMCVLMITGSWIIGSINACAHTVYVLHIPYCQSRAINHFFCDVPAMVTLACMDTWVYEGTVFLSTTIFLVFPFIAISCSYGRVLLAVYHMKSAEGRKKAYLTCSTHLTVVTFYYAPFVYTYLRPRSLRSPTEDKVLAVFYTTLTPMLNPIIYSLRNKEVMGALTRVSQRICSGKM
Test: Effect of suppressing the response of OR2L3 to unpleasant odor (luciferase reporter gene assay)
Format: cell-based
Details: test substance mixed with skatole; ratio of Fold Increase value; FIGS. 6 to 8
measuredQuantity: Effect of suppressing the response of OR2L3 to skatole

>>> valueobserved("CCCCCCOC(=O)c1ccccc1O [Hexyl salicylate, hexyl salicylate, reference compound]")
"did not suppress"
>>> valueobserved("CC(C)(C)C1CCC(O)CC1 (centres unmarked) [4-t-butylcyclohexanol, reference compound]")
"did not suppress"
